# Target or test system: T1, hu-S-IL1RAP construct, positions S21-Q356 (soluble human IL1RAP) (human, UniProt Q9NPH3 21-350)
# T1 sequence: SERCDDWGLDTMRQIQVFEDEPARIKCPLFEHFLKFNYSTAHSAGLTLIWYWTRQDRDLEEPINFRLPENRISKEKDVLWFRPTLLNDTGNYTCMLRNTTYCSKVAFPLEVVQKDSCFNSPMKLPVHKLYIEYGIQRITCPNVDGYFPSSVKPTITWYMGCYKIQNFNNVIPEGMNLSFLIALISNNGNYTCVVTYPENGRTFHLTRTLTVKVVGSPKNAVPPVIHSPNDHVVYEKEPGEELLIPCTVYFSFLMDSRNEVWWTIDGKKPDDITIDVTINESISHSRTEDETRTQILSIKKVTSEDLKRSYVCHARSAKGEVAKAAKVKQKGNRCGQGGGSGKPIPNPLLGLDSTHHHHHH
# Protocol notes: ELISA, purified mAb
Readout label: pEC50
Schema: pEC50 number; meaning minus log10 of the concentration expressed in molar units.

[ask] Return reported pEC50; argument: 10A11 (purified mAb from hybridoma 10A11) (antibody, V domains shown, Mouse hybridoma mAb) VH: EVQLQQSGAELVKPGASVRLSCTSSGFNIKDYFMHWVKQRTEQGLEWVGRIDPEDGETQYAPNFQDKATITVDTSSNTVYLQLSSLTSEDTAVYYCFRPLYYGNSPWFAYWGQGTLVTVSP VL: DIQMTQTTSSLSASLGDRVTISCRASQDISNYLNWYQQKPDGTVKLLIYYTSTLHSGVPSRFSGSGSGTDYSLTISNLEPEDIATYYCHQYSKFPPTFGSGTKLEIK
[reply] 10.46
